- method-notes: in vivo
- test-context: Mouse Balb Nu/Nu, 10 mg/kg oral vs 10 mg/kg IV, single, read-out: F % Oral bioavailability
Here, each record is paired with measured bioavailability data.

| cpd-smiles | unit-spec | bioavailability |
| --- | --- | --- |
| CN(C)c1ccc(Oc2cc(O)cc(O)c2-c2cc(C(=O)NC3CCN(C4CCC5(CC4)OCC(C)(C)CO5)CC3)no2)cc1 | % | 19 |
| CN1CCC(NC(=O)c2cc(-c3c(O)cc(O)cc3Oc3ccc(N(C)C)cc3)no2)CC1 | % | 25 |
| CN(C)c1ccc(Oc2cc(O)cc(O)c2-c2cc(C(=O)NC3CCN(C4CCC5(CC4)OCCO5)CC3)no2)cc1 | % | 36 |
| CN(C)c1ccc(Oc2cc(O)cc(O)c2-c2cc(C(=O)NC3CCN(C4CCC5(CC4)OCCO5)CC3)on2)cc1 | % | 23 |
| CN(C)c1ccc(Oc2cc(O)cc(O)c2-c2cc(C(=O)NC3CCN(C4CCC5(CC4)OCCCCO5)CC3)no2)cc1 | % | 14 |
| CN1CCC(NC(=O)c2cc(-c3c(O)cc(O)cc3Oc3ccc([N+](=O)[O-])cc3)no2)CC1 | % | 7 |

---

- method-notes: in vivo
- test-context: Mouse Balb Nu/Nu, 10 mg/kg IV bolus, single, read-out: CL (mL/h/kg) Plasma clearance (converted)
Threshold rule: clearance greater than or equal to 3000 mL/h/kg is True; below that, False.

| cpd-smiles | label-value |
| --- | --- |
| CN(C)c1ccc(Oc2cc(O)cc(O)c2-c2cc(C(=O)NC3CCN(C4CCC5(CC4)OCCO5)CC3)on2)cc1 | False |
| CN(C)c1ccc(Oc2cc(O)cc(O)c2-c2cc(C(=O)NC3CCN(C4CCC5(CC4)OCC(C)(C)CO5)CC3)no2)cc1 | False |
| CN(C)c1ccc(Oc2cc(O)cc(O)c2-c2cc(C(=O)NC3CCN(C4CCC5(CC4)OCCO5)CC3)no2)cc1 | False |
| CN1CCC(NC(=O)c2cc(-c3c(O)cc(O)cc3Oc3ccc(N(C)C)cc3)no2)CC1 | True |
| CN1CCC(NC(=O)c2cc(-c3c(O)cc(O)cc3Oc3ccc([N+](=O)[O-])cc3)no2)CC1 | True |
| CN(C)c1ccc(Oc2cc(O)cc(O)c2-c2cc(C(=O)NC3CCN(C4CCC5(CC4)OCCCCO5)CC3)no2)cc1 | False |

---

- method-notes: in vivo
- test-context: Mouse Balb Nu/Nu, 10 mg/kg IV bolus, single, read-out: T1/2 (h) Terminal half-life (converted)
- Experimental: Calibration Standards and Quality Controls were prepared spiking blank mouse plasma with appropriate working solutions. Sample plasma proteins were precipitated by adding 160 μL of acetonitrile/methanol 90/10 to 20 μL of mouse plasma in a 96 well plate. After heat sealing and mixing for 3 minutes, the plate was centrifuged for 15 minutes at 4000 rpm. The supernatant was considered as final extract and injected onto the LC-MS-MS system. […]
attribute-measured: half-life (h)

| cpd-smiles | unit-spec | recorded-value |
| --- | --- | --- |
| CN1CCC(NC(=O)c2cc(-c3c(O)cc(O)cc3Oc3ccc(N(C)C)cc3)no2)CC1 | h | 5.12 |
| CN(C)c1ccc(Oc2cc(O)cc(O)c2-c2cc(C(=O)NC3CCN(C4CCC5(CC4)OCC(C)(C)CO5)CC3)no2)cc1 | h | 6.71 |
| CN(C)c1ccc(Oc2cc(O)cc(O)c2-c2cc(C(=O)NC3CCN(C4CCC5(CC4)OCCO5)CC3)no2)cc1 | h | 5.46 |
| CN(C)c1ccc(Oc2cc(O)cc(O)c2-c2cc(C(=O)NC3CCN(C4CCC5(CC4)OCCO5)CC3)on2)cc1 | h | 7.23 |
| CN(C)c1ccc(Oc2cc(O)cc(O)c2-c2cc(C(=O)NC3CCN(C4CCC5(CC4)OCCCCO5)CC3)no2)cc1 | h | 6.87 |
| CN1CCC(NC(=O)c2cc(-c3c(O)cc(O)cc3Oc3ccc([N+](=O)[O-])cc3)no2)CC1 | h | 1.52 |
